Settings: 283.15 K; 5000 kPa; Liquid
readout.name: mass density (kg/m3)
Report the figure in kg/m3 without appending any unit label.

Solved entries:
1. CCCCCCCCCCCCCC[P+](CCCCCC)(CCCCCC)CCCCCC.[Br-] [tetradecyltrihexylphosphonium bromide] = 965.3
2. CCCCCCCCCCCCCC[P+](CCCCCC)(CCCCCC)CCCCCC.CS(=O)(=O)[O-] [trihexyltetradecylphosphonium methanesulfonate] = 940.5
3. CCCCCCCCCCCCCC[P+](CCCCCC)(CCCCCC)CCCCCC.O=S(=O)([N-]S(=O)(=O)C(F)(F)F)C(F)(F)F = 1080.2
4. CCCCCCCCCCCCCC[P+](CCCCCC)(CCCCCC)CCCCCC.[Cl-] [trihexyl(tetradecyl)phosphonium chloride] = 900.7

Lab note: next compound to report on.
**Query** Note mass density for the compound shown: CCCCCCCCCCCCCC[P+](CCCCCC)(CCCCCC)CCCCCC.N#C[N-]C#N [tetradecyl(trihexyl)phosphonium dicyanamide]
**Result** 909.8
